Where these numbers come from: PubChem BioAssay (NCI)

Measured TGI by item
Test system: U251 CNS
Test: NCI tumour cell line growth inhibition, 48 h

Here is how some molecules turned out for TGI.
COC(=O)Nc1nc2c(OC)c(OC)c(OC)cc2[nH]1 | > 100 µM
Cc1ccc(S(=O)(=O)n2cc(-c3cnc(N)c(Br)n3)c3ccccc32)cc1 | > 77.5 µM
c1ccc([C@H]2CN3CCSC3=N2)cc1 | > 100 µM
O=C1c2cnccc2Cc2cccc3c2N1c1ccccc1S3 | 34 µM
O=C(c1ccc(Cl)cc1)N(C(=S)N1CCN(c2ccccn2)CC1)c1ccccc1 | > 100 µM
COc1ccc(N2C(=O)C3c4[nH]c5ccccc5c4C4CCC(C(C)C)CC4C3C2=O)cc1 (stereo not given) | > 100 µM

q: Look up and state reported TGI for Cc1cc[c-]cc1.Fc1c[c-]c(-c2ccccn2)c(F)c1.N#CCC[PH+](CCC#N)c1ccccc1.[Pt+2]
a: 15.4 µM

q: Look up and state reported TGI for N#CC1N(C(=O)c2ccc(F)cc2)c2ccccc2N1C(=O)c1ccc(F)cc1
a: > 100 µM

q: Look up and state reported TGI for Cc1ccccc1NC(=S)N=Nc1c(O)[nH]c2ccccc12
a: > 100 µM

q: Look up and state reported TGI for CCCCCCC(CCl)c1sc(-c2csc(CCNC(=O)OC(C)(C)C)n2)nc1C(=O)OC (stereo not given)
a: 38 µM

----------
System: SK-MEL-5 melanoma
Assay: NCI tumour cell line growth inhibition, 48 h
endpoint-label: TGI (µM)
Give the number; µM is assumed, so skip it.

Here is how some compounds turned out for TGI.
O=C1C[C@H](c2ccccc2)C2(C(=O)c3ccccc3C2=O)[C@@H](c2ccccc2)C1 | 31
N=C1N=C(N)c2cc3c(cc21)SCCSCCCSCCS3 | 31.7
COc1cc2c(cc1OCCCCC(=O)Nc1ccc(-c3nc4ccccc4s3)cc1)N=C[C@@H]1CCCN1C2=O | 3.17
O=C1C=CC2(O[C@@H](Cc3ccccc3)[C@H](Cc3ccccc3)O2)C(SC(=O)c2ccccc2)C1 (stereo partly drawn) | 3.16

q: Determine reported TGI for Oc1c(I)cc(I)cc1CNCCCN(Cc1ccccn1)Cc1ccccn1 ; test system: SK-MEL-5 melanoma.
a: 1.59

q: Determine reported TGI for O=C1NC(=O)c2c1c1c3ccccc3ccc1c1[nH]c3ccc(Br)cc3c21 ; test system: SK-MEL-5 melanoma.
a: 2.94

q: Determine reported TGI for Cc1ccccc1NC(=S)N/N=C(/c1ccccc1)c1ccccn1 ; test system: SK-MEL-5 melanoma.
a: 3.93

----------
Tested on: HOP-92 NSCLC
Experiment: NCI tumour cell line growth inhibition, 48 h; in the data active = GI50 below about 0.43 µM; inactive = the rest
Assign a class; possible classes are class 1 (active), class 0 (inactive)

Study these solved cases before continuing.
O=S(=O)(NC(=S)Nc1ccccc1)c1ccc(N2N=C3c4ccccc4CC3C2c2ccc(Cl)cc2)cc1 (stereo not drawn) | class 0
CCN(CC)c1ccc(/C=C/C(=O)c2cccc(NS(C)(=O)=O)c2)cc1 | class 0
Cc1sc2nc(-c3ccccn3)c(/C=N/N=C(N)N)n2c1C | class 0
Clc1ccccc1-c1nc2ccccc2[nH]1 | class 0
CC(C)(C)c1ccc(C(=O)N/N=C/c2ccc(O)cc2O)cc1 | class 0

q: Which outcome did this test record for the molecule COC(=O)[C@]12CC[C@@H](C)[C@H](C)[C@@H]1C1=CC[C@@H]3[C@@]4(C)C(c5ncon5)=C[C@@](C)(CO)C4=CC[C@@]3(C)[C@]1(C)CC2 ?
a: class 0

q: Which outcome did this test record for the molecule O=C1C=C(N2CC2)c2ccccc2C1=O ?
a: class 0

q: Which outcome did this test record for the molecule Nc1c(C(=O)Nc2cccc3ccccc23)sc2nc3c(cc12)CCCC3 ?
a: class 1
